Target: Neuronal acetylcholine receptor; alpha4/beta2 (Homo sapiens) (UniProt P17787+P43681)
Experiment: Partial agonist activity at human alpha4beta2 nAChR expressed in Xenopus oocytes at 1 uM incubated for 8 secs followed by compound washout measured after 241 secs by two-electrode voltage clamp technique
Assay type: cell-based
The source made the active and inactive calls. The rule behind the calls is not given here.

{"CHEMICAL_STRING": "O=C(Cc1ccccc1)N1C[C@@H]2CNC[C@@H](C2)C1", "Activity": "Active"}
{"CHEMICAL_STRING": "O=C(c1ccc(-c2ccncc2)cc1)N1C[C@@H]2CNC[C@@H](C2)C1", "Activity": "Active"}
{"CHEMICAL_STRING": "O=C(/C=C/c1ccc2c(c1)OCO2)N1C[C@@H]2CNC[C@@H](C2)C1", "Activity": "Active"}
{"CHEMICAL_STRING": "O=C(c1ccc(-c2cccnc2)cc1)N1C[C@@H]2CNC[C@@H](C2)C1", "Activity": "Active"}
{"CHEMICAL_STRING": "O=C(CCc1ccccc1)N1C[C@@H]2CNC[C@@H](C2)C1", "Activity": "Active"}
{"CHEMICAL_STRING": "O=C(/C=C/c1ccncc1)N1C[C@@H]2CNC[C@@H](C2)C1", "Activity": "Active"}
{"CHEMICAL_STRING": "O=C(c1ccc(-n2ccnc2)cc1)N1C[C@@H]2CNC[C@@H](C2)C1", "Activity": "Active"}
{"CHEMICAL_STRING": "O=C(Cc1cccnc1)N1C[C@@H]2CNC[C@@H](C2)C1", "Activity": "Active"}
{"CHEMICAL_STRING": "O=C(Cc1ccc2c(c1)OCO2)N1C[C@@H]2CNC[C@@H](C2)C1", "Activity": "Active"}
{"CHEMICAL_STRING": "Cc1cc(CC(=O)N2C[C@@H]3CNC[C@@H](C3)C2)on1", "Activity": "Active"}

----------
Experiment: Displacement of [3H]epibatidine from calf adrenal alpha3beta4 nAChR after 90 mins by liquid scintillation counting analysis
Parameters: species or system Bos taurus
pKi: −log10 of the molar value.
Reported pKi values follow for various compounds
PROPERTY_LABEL: pKi

{"CHEMICAL_STRING": "COc1cc(CCC(=O)N2C[C@@H]3CNC[C@@H](C3)C2)cc(OC)c1OC", "OBSERVED_VALUE": "< 5.30"}
{"CHEMICAL_STRING": "O=C(CCc1cccnc1)N1C[C@@H]2CNC[C@@H](C2)C1", "OBSERVED_VALUE": "< 5.30"}
{"CHEMICAL_STRING": "O=C(c1ccc(-c2cccnc2)cc1)N1C[C@@H]2CNC[C@@H](C2)C1", "OBSERVED_VALUE": "< 6.00"}
{"CHEMICAL_STRING": "O=c1c(-c2ccccc2)ccc2n1C[C@@H]1CNC[C@H]2C1", "OBSERVED_VALUE": "< 5.00"}
{"CHEMICAL_STRING": "O=C(/C=C/c1cccc2ccccc12)N1C[C@@H]2CNC[C@@H](C2)C1", "OBSERVED_VALUE": "< 5.30"}
{"CHEMICAL_STRING": "O=C(/C=C/c1ccco1)N1C[C@@H]2CNC[C@@H](C2)C1", "OBSERVED_VALUE": "< 6.00"}
{"CHEMICAL_STRING": "O=c1c(-c2ccc3c(c2)OCO3)ccc2n1C[C@@H]1CNC[C@H]2C1", "OBSERVED_VALUE": "< 5.00"}
{"CHEMICAL_STRING": "CS(=O)(=O)c1ccc(CC(=O)N2C[C@@H]3CNC[C@@H](C3)C2)cc1", "OBSERVED_VALUE": "< 5.30"}
{"CHEMICAL_STRING": "O=C(C#Cc1cccc2ccccc12)N1C[C@@H]2CNC[C@@H](C2)C1", "OBSERVED_VALUE": "< 6.00"}
{"CHEMICAL_STRING": "O=C(c1ccc(-c2ccccc2)cc1)N1C[C@@H]2CNC[C@@H](C2)C1", "OBSERVED_VALUE": 5.96}
{"CHEMICAL_STRING": "O=C(/C=C/c1cccnc1)N1C[C@@H]2CNC[C@@H](C2)C1", "OBSERVED_VALUE": "< 6.00"}
{"CHEMICAL_STRING": "COc1ccccc1C#CC(=O)N1C[C@@H]2CNC[C@@H](C2)C1", "OBSERVED_VALUE": "< 6.00"}
{"CHEMICAL_STRING": "O=C(/C=C/c1ccncc1)N1C[C@@H]2CNC[C@@H](C2)C1", "OBSERVED_VALUE": "< 6.00"}
{"CHEMICAL_STRING": "O=C(/C=C/c1ccccc1)N1C[C@@H]2CNC[C@@H](C2)C1", "OBSERVED_VALUE": "< 5.30"}
{"CHEMICAL_STRING": "O=C(CCc1ccccc1)N1C[C@@H]2CNC[C@@H](C2)C1", "OBSERVED_VALUE": 6.40}
{"CHEMICAL_STRING": "O=C(C#Cc1ccccc1)N1C[C@@H]2CNC[C@@H](C2)C1", "OBSERVED_VALUE": "< 6.00"}
{"CHEMICAL_STRING": "O=C(/C=C/c1ccc(F)cc1)N1C[C@@H]2CNC[C@@H](C2)C1", "OBSERVED_VALUE": "< 5.30"}
{"CHEMICAL_STRING": "O=C(c1ccccc1)N1C[C@@H]2CNC[C@@H](C2)C1", "OBSERVED_VALUE": "< 5.30"}
{"CHEMICAL_STRING": "O=C(Cc1ccc2ccccc2c1)N1C[C@@H]2CNC[C@@H](C2)C1", "OBSERVED_VALUE": "< 6.00"}
{"CHEMICAL_STRING": "COc1cccc(C#CC(=O)N2C[C@@H]3CNC[C@@H](C3)C2)c1", "OBSERVED_VALUE": "< 6.00"}
